# System: CAKI-1 renal
# PROCEDURE_TEXT: NCI-60 one-dose screen, 48 h
# REPORTED_CONDITIONS: 10 µM
This is part of a sample that, as a whole, favours compounds with a hit. Of some 83,000 tested, about 20% had one in any assay. Active and inactive are the calls of the source. How the source made its calls: active means growth percent below 10; inactive means the rest.
Your reply should match one of these outcome classes. active, inactive

Qu. Can you look up the reported call for COc1cc(NC(=O)CSc2nc3ccccc3c(=O)n2CCc2ccccc2)cc(OC)c1OC for me?
Ans. inactive

Qu. Can you look up the reported call for CC/C(=C(/c1ccc(OCCN(C)C)cc1)c1ccc(OC(=O)CCC(=O)c2c(C)[nH]c(/C=C3\N=C(c4ccc[nH]4)C=C3OC)c2C)cc1)c1ccccc1 for me?
Ans. inactive

Qu. Can you look up the reported call for CC1(C)CCC(=NNC(N)=S)CC1 for me?
Ans. inactive

Qu. Can you look up the reported call for N#Cc1ncc(-c2ccc(C(F)(F)F)cc2)c(NCc2cc(C(F)(F)F)cc(C(F)(F)F)c2)n1 for me?
Ans. inactive

Qu. Can you look up the reported call for CCCCN(CCCC)c1cc(C(=O)CCCCCN)c2ccccc2n1 for me?
Ans. active

Qu. Can you look up the reported call for COc1ccc(C2CC(c3ccc(N(C)C)cc3)=NN2c2ccc(S(N)(=O)=O)cc2)cc1 (stereo unspecified) for me?
Ans. inactive

Qu. Can you look up the reported call for CCCCCCN(CCCCCC)CC(O)c1ccc2c3c(cccc13)CC2 (stereo unspecified) for me?
Ans. inactive

Qu. Can you look up the reported call for N=C(N)c1ccc(-c2ccc(-c3cccs3)s2)s1 for me?
Ans. active

Qu. Can you look up the reported call for COc1ccc(/C=C/C(=O)Nc2ccc(-c3nc4ccc(F)cc4s3)cc2)cc1 for me?
Ans. inactive

Qu. Can you look up the reported call for O=C(CCCCCCC(=O)Nc1cccnc1)NO for me?
Ans. inactive

Qu. Can you look up the reported call for CCCCC(CCCCCC(CCCC)NCc1ccc2c(c1)OCO2)NCc1ccc2c(c1)OCO2 (stereo unspecified) for me?
Ans. active

Qu. Can you look up the reported call for N#Cc1ncc(Br)c(NC2CCCCCC2)n1 for me?
Ans. inactive

Qu. Can you look up the reported call for O=C1/C(=C\c2cn(C(=O)c3ccc(Cl)cc3)c3ccccc23)c2ccccc2N1C(=O)c1ccc(Cl)cc1 for me?
Ans. inactive

Qu. Can you look up the reported call for CCN(CC)CCSCCN(CC)CC for me?
Ans. inactive

Qu. Can you look up the reported call for CC(=O)[C@H]1CC[C@H]2[C@@H]3CCC4=CC(=O)C=C[C@]4(C)[C@H]3CC[C@]12C for me?
Ans. inactive

Qu. Can you look up the reported call for COc1ccc(Cl)cc1-n1nnc(-c2nc3ccccc3[nH]2)c1N for me?
Ans. inactive

Qu. Can you look up the reported call for COc1cc(/C=C/C(=O)c2ccc(Cl)cc2)ccc1OS(=O)(=O)c1ccc(C)cc1 for me?
Ans. inactive

Qu. Can you look up the reported call for CCOC(=O)N1C/C(=C/c2ccc(OC)cc2)C(=O)/C(=C/c2ccc(OC)cc2)C1 for me?
Ans. inactive

Qu. Can you look up the reported call for O=C(NC(Cc1ccc(O)cc1)C(=O)N=Nc1c(O)[nH]c2ccccc12)c1ccccc1 (stereo unspecified) for me?
Ans. inactive

Qu. Can you look up the reported call for N=C(N)c1ccc(-c2ccc(-c3cccs3)s2)cc1 for me?
Ans. inactive

Qu. Can you look up the reported call for CN(C)c1ccc(Cc2ccc(N(C)C)cc2Cl)c(Cl)c1 for me?
Ans. inactive

Qu. Can you look up the reported call for O=c1[nH]c(-c2ccc(Cl)cc2)nc2sc3c(c12)CCCC3 for me?
Ans. inactive

Qu. Can you look up the reported call for O=C(N/N=C/c1cc2ccccc2c2ccccc12)c1cc(O)c(O)c(O)c1 for me?
Ans. inactive

Qu. Can you look up the reported call for CN1CCCNc2c(c(=O)c2=O)NCCCN(C)CCCNc2c(c(=O)c2=O)NCCCN(C)CCCNc2c(c(=O)c2=O)NCCCN(C)CCCNc2c(c(=O)c2=O)NCCCN(C)CCCNc2c(c(=O)c2=O)NCCCN(C)CCCNc2c(c(=O)c2=O)NCCCN(C)CCCNc2c(c(=O)c2=O)NCCC1 for me?
Ans. inactive

Qu. Can you look up the reported call for CC(=O)c1nc2ccccc2n1CCNC(N)=O for me?
Ans. inactive

Qu. Can you look up the reported call for COc1ccc(-c2nc3sc(-c4ccccc4)c(-c4ccccc4)n3c2/C=C/C(=O)c2ccccn2)cc1 for me?
Ans. inactive

Qu. Can you look up the reported call for COc1cc(/C=C\c2cc(OC)c(OC)c(OC)c2)cc(NS(=O)(=O)c2ccc(Cl)cc2)c1OC for me?
Ans. inactive

Qu. Can you look up the reported call for O=C(CSSCC(=O)c1ccc(Cl)cc1)c1ccc(Cl)cc1 for me?
Ans. inactive

Qu. Can you look up the reported call for CN(C)CCOc1nc2ccccc2c2c1-c1ccc(Cl)cc1C2=O for me?
Ans. active

Qu. Can you look up the reported call for COc1cc(-c2cc(/C=C3\C(=O)Nc4cc(Cl)ccc43)[nH]n2)cc(OC)c1OC for me?
Ans. inactive

Qu. Can you look up the reported call for Cc1cc(C)c(CCc2cc(C)c(C)cc2C)cc1C for me?
Ans. inactive

Qu. Can you look up the reported call for FC(F)(F)c1ccc(-c2cnc(Cl)nc2N2CCC3(CC2)OCCO3)cc1 for me?
Ans. inactive

Qu. Can you look up the reported call for NC(=O)CC1(c2ccccc2)CCCCC1 for me?
Ans. inactive

Qu. Can you look up the reported call for FC(F)(F)c1ccc2nc(-c3nc(-c4ccccc4)n4ccccc34)[nH]c2c1 for me?
Ans. inactive

Qu. Can you look up the reported call for O=C(N/N=C/c1ccccc1O)C(O)(c1ccccc1)c1ccccc1 for me?
Ans. inactive

Qu. Can you look up the reported call for COc1ccc(-c2nnc(-c3c(-c4ccccc4)nc4ncccn34)o2)cc1OC for me?
Ans. inactive

Qu. Can you look up the reported call for O=c1cc(-c2ccccc2)[nH]n1-c1nc2ccccc2[nH]1 for me?
Ans. inactive

Qu. Can you look up the reported call for COc1ccc(-c2nc3ncccn3c2-c2nnc(-c3ccc(F)cc3)o2)cc1 for me?
Ans. inactive

Qu. Can you look up the reported call for COc1ccc(-c2nn(-c3cccc(NC(=O)c4cc(C(F)(F)F)cc(C(F)(F)F)c4)c3)cc2-c2ccncc2)cc1Cl for me?
Ans. inactive

Qu. Can you look up the reported call for COc1ccc2c(c1)C(=O)c1c-2c(=O)n(CCCN(C)C)c2cc(OC)c(OC)cc12 for me?
Ans. inactive

Qu. Can you look up the reported call for N=C(N)c1ccc(-c2ccc(-c3ccco3)o2)cc1 for me?
Ans. inactive
